B1: HDV Ribozyme (parent)
chain: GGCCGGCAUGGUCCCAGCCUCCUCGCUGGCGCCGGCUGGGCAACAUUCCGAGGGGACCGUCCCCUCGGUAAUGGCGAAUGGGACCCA

# Variants of: B1
# ASSAY OVERVIEW: self-cleavage, relative activity (ratio to wild type); higher = more cleavage; co-transcriptional
MEASURE: self-cleavage
Provide a numeric answer; units are not to be included.

SEQ	self-cleavage
GGCCGGCAUGGUCCCAGCCUCCUCGCUGGCGCCCGCUGGGCACCAUUCCGAGGGGACCGUCCCCUCGGUAAUGGCGAAUGGGACCCA [G34C A43C]	0.364
GGCCGGCAUGGUCCCAGCCUCCUCGCUGGCGCCGGCUGGGCAACAUUCCGAAGGGACCGUCCCCUCGGUCAUGGCGAAUGGGACCCA [G52A A70C]	0.791

Quick one: give measured self-cleavage for GGCCGGUAUGGUCCCAGCCUCCUCGGUGGCGCCGGCUGGGCAACAUUCCGAGGGGACCGUCCCCUCGGUAAUGGCGAAUGGGACCCA [C7U C26G]
0.534

Quick one: give measured self-cleavage for GGCCGGCAUGGUCCCAGCCUCCUGGCUGGCGCCGGCUGGGCAACAUUCCGAGGGGACCGUCCCCUCGGUAAUGGCGAAUGGGACCAA [C24G C86A]
0.106

Hey, just so you know, these numbers are from the RNAGym collection of RNA variant scans (doi:10.7554/elife.80360).
